Parameter: Total SFC. Scope: all listed entries.
System: PBMC from 30 HC individuals
Assay: ex vivo IFNγ ELISPOT with NTM-specific peptides
Assay type: cell-based, human
EXPERIMENTAL ENDPOINT: Total SFC

KDVFFYEPIILPEKS [Peptide 752]
78 SFC
KWETFLTQELPAYLA [Peptide 741]
248 SFC
LGVAALLFGFPIFFD [Peptide 391]
77 SFC
SLHMFFHRLGPVLAR [Peptide 329]
167 SFC
GSMLWVAALIGEEIF [Peptide 587]
68 SFC
RLFPVIRRYALAYHV [Peptide 582]
158 SFC
PKLKQFMSDVVWIEH [Peptide 775]
70 SFC

Data provenance is patent US10406218B2.
